# Candida albicans ATCC 38247: MIC values follow

Examples with their reported MIC follow.
| Molecule | Value Observed |
| --- | --- |
| COc1cc(O)c2c(c1)C(=O)c1c(cc3c(c1O)-c1c(cc(C)c(C(=O)N[C@H](CO)C(=O)O)c1O)[C@H](O[C@@H]1O[C@H](C)[C@H](N)[C@H](O[C@@H]4OC[C@@H](O)[C@H](O)[C@H]4O)[C@H]1O)[C@H]3O)C2=O [Pradimicin FA-2, reference compound] | 1.6 µg/mL |
| COc1cc(O)c2c(c1)C(=O)c1c(cc3c(c1O)-c1c(cc(C)c(C(=O)N[C@H](CO)C(=O)O)c1O)[C@H](O[C@@H]1O[C@H](C)[C@H](NC#N)[C@H](O[C@@H]4OC[C@@H](O)[C@H](O)[C@H]4O)[C@H]1O)[C@H]3O)C2=O | 3.1 µg/mL |
| COc1cc(O)c2c(c1)C(=O)c1c(cc3c(c1O)-c1c(cc(C)c(C(=O)N[C@H](C)C(=O)O)c1O)[C@H](O[C@@H]1O[C@H](C)[C@H](NC(=N)N[N+](=O)[O-])[C@H](O[C@@H]4OC[C@@H](O)[C@H](O)[C@H]4O)[C@H]1O)[C@H]3O)C2=O | 1.6 µg/mL |

The molecule `COc1cc(O)c2c(c1)C(=O)c1c(cc3c(c1O)-c1c(cc(C)c(C(=O)N[C@H](C)C(=O)O)c1O)[C@H](O[C@@H]1O[C@H](C)[C@H](N(C)N=O)[C@H](O[C@@H]4OC[C@@H](O)[C@H](O)[C@H]4O)[C@H]1O)[C@H]3O)C2=O` , tested on Candida albicans ATCC 38247, showed MIC of 1.6 µg/mL

Lab entry: Candida albicans ATCC 38247 assay, molecule `COc1cc(O)c2c(c1)C(=O)c1c(cc3c(c1O)-c1c(cc(C)c(C(=O)N[C@H](C)C(=O)O)c1O)[C@H](O[C@@H]1O[C@H](C)[C@H](N)[C@H](O[C@@H]4OC[C@@H](O)[C@H](O)[C@H]4O)[C@H]1O)[C@H]3O)C2=O` , MIC = 3.1 µg/mL

Hey, Candida albicans ATCC 38247 data for `COc1cc(O)c2c(c1)C(=O)c1c(cc3c(c1O)-c1c(cc(C)c(C(=O)N[C@H](C)C(=O)O)c1O)[C@H](O[C@@H]1O[C@H](C)[C@H](NC#N)[C@H](O[C@@H]4OC[C@@H](O)[C@H](O)[C@H]4O)[C@H]1O)[C@H]3O)C2=O` : MIC came out at 1.6 µg/mL

Entry `COc1cc(O)c2c(c1)C(=O)c1c(cc3c(c1O)-c1c(cc(C)c(C(=O)N[C@H](CO)C(=O)O)c1O)[C@H](O[C@@H]1O[C@H](C)[C@H](N(C)C#N)[C@H](O[C@@H]4OC[C@@H](O)[C@H](O)[C@H]4O)[C@H]1O)[C@H]3O)C2=O` , tested on Candida albicans ATCC 38247, has a reported MIC of 3.1 µg/mL

Fill in: Candida albicans ATCC 38247 MIC for CN[C@@H]1[C@H](O[C@@H]2OC[C@@H](O)[C@H](O)[C@H]2O)[C@@H](O)[C@H](O[C@H]2c3cc(C)c(C(=O)N[C@H](CO)C(=O)O)c(O)c3-c3c(cc4c(c3O)C(=O)c3cc(OC)cc(O)c3C4=O)[C@@H]2O)O[C@@H]1C [Pradimicin FA-1, reference compound] = 1.6 µg/mL

Tested system Candida albicans ATCC 38247; MIC recorded for `COc1cc(O)c2c(c1)C(=O)c1c(cc3c(c1O)-c1c(cc(C)c(C(=O)N[C@H](CO)C(=O)O)c1O)[C@H](O[C@@H]1O[C@H](C)[C@H](N(C)N=O)[C@H](O[C@@H]4OC[C@@H](O)[C@H](O)[C@H]4O)[C@H]1O)[C@H]3O)C2=O` was 3.1 µg/mL

The reported MIC value, Candida albicans ATCC 38247, for `COc1cc(O)c2c(c1)C(=O)c1c(cc3c(c1O)-c1c(cc(C)c(C(=O)N[C@H](C)C(=O)O)c1O)[C@H](O[C@@H]1O[C@H](C)[C@H](N(C)C#N)[C@H](O[C@@H]4OC[C@@H](O)[C@H](O)[C@H]4O)[C@H]1O)[C@H]3O)C2=O` reads 1.6 µg/mL

Observed MIC, Candida albicans ATCC 38247, CN[C@@H]1[C@H](O[C@@H]2OC[C@@H](O)[C@H](O)[C@H]2O)[C@@H](O)[C@H](O[C@H]2c3cc(C)c(C(=O)N[C@H](C)C(=O)O)c(O)c3-c3c(cc4c(c3O)C(=O)c3cc(OC)cc(O)c3C4=O)[C@@H]2O)O[C@@H]1C [Pradimicin A, reference compound] : 3.1 µg/mL
